Reference for the values: the RNAGym collection of RNA variant scans (doi:10.7554/elife.80360)

# Lookup of reported self-cleavage keyed by entry
B1: CPEB3 Ribozyme (parent)
chain: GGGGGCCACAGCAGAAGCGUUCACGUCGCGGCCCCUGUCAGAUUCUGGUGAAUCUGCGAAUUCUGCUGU

- Variants of: B1
- TEST DESCRIPTION: self-cleavage, relative activity (ratio to wild type); higher = more cleavage; co-transcriptional
// no unit string in output, number only

{"MUTATION CODE": "G1U A13G", "NUMERIC READOUT": 0.0953}
{"MUTATION CODE": "C24U G37C", "NUMERIC READOUT": 0.223}
{"MUTATION CODE": "G4A C12U", "NUMERIC READOUT": 0.876}

Would you mind telling me what self-cleavage value was observed for G28U C39U ?
0.171

Suppose we examine the variant A23U C24U ; what self-cleavage value has been reported?
0.924

self-cleavage for G1C U46A ?
0.208

Param item = G19U U20G ; retrieve measured self-cleavage.
0.139

Which value of self-cleavage has been reported for G25A G50A in the records?
0.195

GET /values?readout=self-cleavage&item= G11C U69A
0.921

Could you tell me which self-cleavage is on file for C18G A23U ?
0.22

Record request: self-cleavage value, item U49G A51U
0.95

Item U38G U53C has what recorded self-cleavage?
0.24

Which value of self-cleavage has been reported for U26C C27A in the records?
0.45

self-cleavage for G19C C24G ?
0.135

Entry A10G U67C : reported self-cleavage = ?
0.967
